Reference source for all entries: patent US20260184681A1

System: MV4-11, an acute myeloid leukemia cell line
Assay: WST-8 cell viability assay (inhibition of cancer cell proliferation) in MV4-11
Type: cell-based
Settings: Homo sapiens; MV4-11 cells, final concentration 0.02 to 100 μM, 72 hours, WST-8 assay
pIC50: −log10 of the molar value.
measured attribute: pIC50

{"molecule": "CC(C)(C)c1ccc(C(=O)Nc2ccc(C(N)=O)c(NC3CCCN(C(=O)Nc4ccccc4)C3)c2)cc1 (stereo not shown)", "pIC50": 5.42}
{"molecule": "CC(C)S(=O)(=O)N1CCCC(Nc2cc(NC(=O)c3ccc(C(C)(C)C)cc3)ccc2C(N)=O)C1 (stereo not shown)", "pIC50": 5.02}

(1) CC(C)(C)c1ccc(C(=O)Nc2ccc(C(N)=O)c(NC3CCCN(C(=O)c4ccccc4)C3)c2)cc1 (stereo not shown)
(2) COC(=O)c1ccc(NC(=O)c2ccc(C(C)(C)C)cc2)cc1NC1CCCN(Cc2ccccc2)C1 (stereo not shown)
// select label with min value of measured pIC50 from [ 1 , 2 ] Write the label of whichever entry you select.
1

###

Tested on: MV4-11, an acute myeloid leukemia cell line
Assay: WST-8 cell viability assay (inhibition of cancer cell proliferation) in MV4-11
Format: cell-based
Conditions: Homo sapiens; MV4-11 cells, final concentration 0.02 to 100 μM, 72 hours, WST-8 assay
pIC50: −log10 of the molar value. Structures can show the parent of a compound that is named as a salt.
measured attribute: pIC50

{"compound": "CC(C)(C)c1ccc(C(=O)Nc2ccc(C(N)=O)c(NC3CCNCC3)c2)cc1 [Example D-11, trifluoroacetate]", "pIC50": 5.77}
{"compound": "CCCCN1CCCC(Nc2cc(NC(=O)c3ccc(C(C)(C)C)cc3)ccc2C(=O)OC)C1 (stereo not shown)", "pIC50": 5.66}
{"compound": "CC(C)(C)c1ccc(C(=O)Nc2ccc(C(N)=O)c(NC3CCCN(C(=O)NC4CCCCC4)C3)c2)cc1 (stereo not shown)", "pIC50": 5.62}
{"compound": "CC(C)(C)c1ccc(C(=O)Nc2ccc(C(N)=O)c(NC3CCCNC3)c2)cc1 [Example D-10, trifluoroacetate]", "pIC50": 5.70}

###

Tested on: MV4-11, an acute myeloid leukemia cell line
Test: WST-8 cell viability assay (inhibition of cancer cell proliferation) in MV4-11
Type: cell-based
Details: Homo sapiens; MV4-11 cells, final concentration 0.02 to 100 μM, 72 hours, WST-8 assay
measured attribute: IC50 (µM)

{"compound": "CCc1cccc(CC)c1NC(=O)N1CCCC(Nc2cc(NC(=O)c3ccc(C(C)(C)C)cc3)ccc2C(N)=O)C1 (stereo not shown)", "IC50, µM": 5.32}
{"compound": "CC(C)(C)c1ccc(C(=O)Nc2ccc(C(N)=O)c(NC3CCCN(C(=O)Nc4ccc(C(F)(F)F)cc4)C3)c2)cc1 (stereo not shown)", "IC50, µM": 7.81}
{"compound": "COC(=O)c1ccc(NC(=O)c2ccc(C(C)(C)C)cc2)cc1NC1CCCN(C)C1 (stereo not shown)", "IC50, µM": 4.59}
{"compound": "CCN1CCCC(Nc2cc(NC(=O)c3ccc(C(C)(C)C)cc3)ccc2C(=O)OC)C1 (stereo not shown)", "IC50, µM": 3.42}
{"compound": "CN1CCCC(Nc2cc(NC(=O)c3ccc(C(C)(C)C)cc3)ccc2C(N)=O)C1 (stereo not shown)", "IC50, µM": 4.3}

(P) CC(C)(C)c1ccc(C(=O)Nc2ccc(C(N)=O)c(NC3CCCN(C(=O)Nc4ccc(I)cc4)C3)c2)cc1 (stereo not shown)
(Q) CCCCNC(=O)N1CCCC(Nc2cc(NC(=O)c3ccc(C(C)(C)C)cc3)ccc2C(=O)OC)C1 (stereo not shown)
In the pair P and Q , the larger recorded IC50 belongs to which? Respond with the label that goes with your answer.
Q
(Q: 15.3 µM, P: 4.68 µM)

###

Test system: MV4-11, an acute myeloid leukemia cell line
Assay: WST-8 cell viability assay (inhibition of cancer cell proliferation) in MV4-11
Assay type: cell-based
Settings: Homo sapiens; MV4-11 cells, compound at 10 μM, 72 hours, WST-8 assay
measured attribute: inhibition at 10 µM (%)
Give the number; % is assumed, so skip it.

Entry COC(=O)c1ccc(NC(=O)c2ccc(C(C)(C)C)cc2)cc1NC1CCCN(C)C1 (stereo not shown) ; assay system MV4-11, an acute myeloid leukemia cell line; inhibition at 10 µM recorded at 100

###

Tested on: MV4-11, an acute myeloid leukemia cell line
Experiment: WST-8 cell viability assay (inhibition of cancer cell proliferation) in MV4-11
Type: cell-based
Conditions: Homo sapiens; MV4-11 cells, final concentration 0.02 to 100 μM, 72 hours, WST-8 assay
pIC50: −log10 of the molar value.
measured attribute: pIC50

(1) CC(C)(C)c1ccc(C(=O)Nc2ccc(C(=O)O)c(NC3CCCN(Cc4ccccc4)C3)c2)cc1 (stereo not drawn) [Example E-2]
(2) CC(C)(C)c1ccc(C(=O)Nc2ccc(C(N)=O)c(NC3CCCN(S(=O)(=O)Cc4ccccc4)C3)c2)cc1 (stereo not drawn) [Example A-15]
Endpoint returns the identifier whose pIC50 is numerically larger, either 1 or 2 . Label of pick, please.
2
(2: 5.39, 1: 5.02)

###

Tested on: MV4-11, an acute myeloid leukemia cell line
Test: WST-8 cell viability assay (inhibition of cancer cell proliferation) in MV4-11
Assay type: cell-based
Conditions: Homo sapiens; MV4-11 cells, final concentration 0.02 to 100 μM, 72 hours, WST-8 assay
measured attribute: IC50 (µM)

{"compound": "CC(C)(C)c1ccc(C(=O)Nc2ccc(C(N)=O)c(NC3CCCN(C(=O)NCc4cccc(F)c4)C3)c2)cc1 (stereo not drawn)", "IC50 (µM)": 4.75}

(P) CCCCCCCCNC(=O)N1CCCC(Nc2cc(NC(=O)c3ccc(C(C)(C)C)cc3)ccc2C(N)=O)C1 (stereo not drawn)
(Q) CN(C)S(=O)(=O)N1CCCC(Nc2cc(NC(=O)c3ccc(C(C)(C)C)cc3)ccc2C(N)=O)C1 (stereo not drawn)
Thinking about recorded IC50 values, which is higher, P or Q ? Label of pick, please.
Q

###

inhibition at 10 µM reference
Tested on: MV4-11, an acute myeloid leukemia cell line
Assay: WST-8 cell viability assay (inhibition of cancer cell proliferation) in MV4-11
Assay type: cell-based
Conditions: Homo sapiens; MV4-11 cells, compound at 10 μM, 72 hours, WST-8 assay
Counter-ions that a name gives are not always drawn.
Quick note: give the figure in %, leave out the unit.

{"compound": "COc1cc([N+](=O)[O-])ccc1NC(=O)N1CCCC(Nc2cc(NC(=O)c3ccc(C(C)(C)C)cc3)ccc2C(N)=O)C1 (stereo not drawn)", "measured attribute": "inhibition at 10 µM", "observed": 80.5}
{"compound": "CCCCNC(=O)N1CCCC(Nc2cc(NC(=O)c3ccc(C(C)(C)C)cc3)ccc2C(=O)OC)C1 (stereo not drawn)", "measured attribute": "inhibition at 10 µM", "observed": 84.6}
{"compound": "CCN1CCCC(Nc2cc(NC(=O)c3ccc(C(C)(C)C)cc3)ccc2C(=O)OC)C1 (stereo not drawn)", "measured attribute": "inhibition at 10 µM", "observed": 100}

Record summary for COC(=O)c1ccc(NC(=O)c2ccc(C(C)(C)C)cc2)cc1NC1CCCN(Cc2ccccc2)C1 (stereo not drawn) : reported inhibition at 10 µM = 70.1

inhibition at 10 µM reading for CCCCN1CCCC(Nc2cc(NC(=O)c3ccc(C(C)(C)C)cc3)ccc2C(=O)OC)C1 (stereo not drawn) : 97.8

The value of inhibition at 10 µM measured for the compound CCCCN1CCCC(Nc2cc(NC(=O)c3ccc(C(C)(C)C)cc3)ccc2C(N)=O)C1 (stereo not drawn) turned out to be 95.5

Lab book: inhibition at 10 µM of CC(C)(C)c1ccc(C(=O)Nc2ccc(C(N)=O)c(NC3CCCNC3)c2)cc1 [Example D-10, trifluoroacetate] noted as 70

Value of inhibition at 10 µM reported for the compound CC(C)(C)c1ccc(C(=O)Nc2ccc(C(N)=O)c(NC3CCCN(C(=O)Nc4ccccc4)C3)c2)cc1 (stereo not drawn) is 96.2

GET /value?item= CC(C)(C)c1ccc(C(=O)Nc2ccc(C(N)=O)c(NC3CCCN(S(=O)(=O)Cc4ccccc4)C3)c2)cc1 (stereo not drawn) &field=inhibition at 10 µM returns 95.9

The compound identified as CC(C)(C)c1ccc(C(=O)Nc2ccc(C(N)=O)c(NC3CCCN(C(=O)NC4CCCCC4)C3)c2)cc1 (stereo not drawn) registered its inhibition at 10 µM at 94.6

###

Readings of inhibition at 10 µM for the listed compounds
Tested on: MV4-11, an acute myeloid leukemia cell line
Assay: WST-8 cell viability assay (inhibition of cancer cell proliferation) in MV4-11
Type: cell-based
Conditions: Homo sapiens; MV4-11 cells, compound at 10 μM, 72 hours, WST-8 assay
Experimental: In order to confirm the inhibition of cancer cell proliferation of the compound, the WST-8 assay (Cyto X cell viability assay kit, LPS solution, Daejeon, Korea) was performed according to the manufacturer's protocol. MV4-11, an acute myeloid leukemia cell line, was inoculated into a 96-well plate at 3×10^3 per well. […] Following a 1-hour incubation at 37° C., color development was observed, and the absorbance was measured at 480 nm using a Versamax microplate reader (Molecular Devices, CA, USA). […]
Counter-ions that a name gives are not always drawn.
Report the figure in % without appending any unit label.

Recorded inhibition at 10 µM, per entry:
{"compound": "CC(C)(C)c1ccc(C(=O)Nc2ccc(C(N)=O)c(NC3CCCN(C(=O)Nc4ccc(I)cc4)C3)c2)cc1 (centres unmarked)", "measured attribute": "inhibition at 10 µM", "observed": 94}
{"compound": "CC(C)(C)c1ccc(C(=O)Nc2ccc(C(N)=O)c(NC3CCCN(C(=O)NCc4cccc(F)c4)C3)c2)cc1 (centres unmarked)", "measured attribute": "inhibition at 10 µM", "observed": 100}
{"compound": "CC(C)(C)c1ccc(C(=O)Nc2ccc(C(=O)O)c(NC3CCCN(Cc4ccccc4)C3)c2)cc1 (centres unmarked)", "measured attribute": "inhibition at 10 µM", "observed": 71.1}
{"compound": "CC(C)(C)c1ccc(C(=O)Nc2ccc(C(N)=O)c(NC3CCCN(C(=O)c4ccccc4)C3)c2)cc1 (centres unmarked)", "measured attribute": "inhibition at 10 µM", "observed": 97.1}
{"compound": "CC(C)(C)c1ccc(C(=O)Nc2ccc(C(N)=O)c(NC3CCNCC3)c2)cc1 [Example D-11, trifluoroacetate]", "measured attribute": "inhibition at 10 µM", "observed": 70}
{"compound": "CN(C)S(=O)(=O)N1CCCC(Nc2cc(NC(=O)c3ccc(C(C)(C)C)cc3)ccc2C(N)=O)C1 (centres unmarked)", "measured attribute": "inhibition at 10 µM", "observed": 87.6}
{"compound": "CC(C)(C)c1ccc(C(=O)Nc2ccc(C(N)=O)c(NC3CCCN(C(=O)Nc4ccc(C(F)(F)F)cc4)C3)c2)cc1 (centres unmarked)", "measured attribute": "inhibition at 10 µM", "observed": 97.2}
{"compound": "CN1CCCC(Nc2cc(NC(=O)c3ccc(C(C)(C)C)cc3)ccc2C(N)=O)C1 (centres unmarked)", "measured attribute": "inhibition at 10 µM", "observed": 100}
{"compound": "CC(C)S(=O)(=O)N1CCCC(Nc2cc(NC(=O)c3ccc(C(C)(C)C)cc3)ccc2C(N)=O)C1 (centres unmarked)", "measured attribute": "inhibition at 10 µM", "observed": 90.3}
{"compound": "CCCCCCCCNC(=O)N1CCCC(Nc2cc(NC(=O)c3ccc(C(C)(C)C)cc3)ccc2C(N)=O)C1 (centres unmarked)", "measured attribute": "inhibition at 10 µM", "observed": 100}

inhibition at 10 µM reading for CCc1cccc(CC)c1NC(=O)N1CCCC(Nc2cc(NC(=O)c3ccc(C(C)(C)C)cc3)ccc2C(N)=O)C1 (centres unmarked) : 93.7
